These data points were gathered from patent US20240286998A1.

molecular target: Serotonin 5-HT2A (human) (Homo sapiens (Human)); test: 5-HT2A receptor binding, [3H]-ketanserin competition in membrane fractions; conditions: 1 nM [3H]-ketanserin, Cheng-Prusoff, N=1-3
Reported 5-HT2A pKi ± SEM values follow for various molecules
ENDPOINT_NAME: 5-HT2A pKi ± SEM

CC(C)N(CCc1c[nH]c2ccc(F)cc12)C1CCC1
6.06
CCCN(CCc1c[nH]c2ccc(F)cc12)C1CCC1
6.25
CN1CCC[C@H]1Cc1c[nH]c2ccc(F)cc12
5.57
CCC(C)N(CCc1c[nH]c2ccc(F)cc12)C(C)C (stereo not shown)
5.86
CCCN(CC)CCc1c[nH]c2c(F)c(F)c(F)cc12
6.69
CCN(CCc1c[nH]c2ccc(F)cc12)C1CCC1
6.26
C#CCN(CCC)CCc1c[nH]c2c(F)cccc12
5.75
CCCN(CCc1c[nH]c2c(F)cccc12)C(C)CC (stereo not shown)
5.65
CCC(C)N(CC#N)CCc1c[nH]c2ccc(F)cc12 (stereo not shown)
5.71
CN(C)CCc1c[nH]c2ccc(F)cc12
6.65

###

assay: In vivo intravenous pharmacokinetic study in rats; parameters: species or system Sprague Dawley rats; conditions: male, Sprague Dawley, plasma; rat, intravenous 1 mg/kg, mean, N=3
ENDPOINT_NAME: C0 (ng/mL)

CCC(C)N(C)CCc1c[nH]c2ccc(F)cc12 (stereo not shown)
2490

###

biological target: 5-HT2A (Homo sapiens (Human), UniProt P28223); assay: 5-HT2A Gq-mediated calcium flux functional assay; assay type: cell-based; settings: IA = Inactive; N=1-3
Below is a list of entries, each paired with its recorded 5-HT2A-Ca2+ FLUX Emax (% 5-HT) value.
ENDPOINT_NAME: 5-HT2A-Ca2+ FLUX Emax (% 5-HT)

Fc1ccc2[nH]cc(CCN(C3CCC3)C3CC3)c2c1
87.4
CN1CCC[C@@H]1Cc1c[nH]c2ccc(F)cc12
91.1
CCC(C)N(CCc1c[nH]c2ccc(F)cc12)C(C)C (stereo not drawn)
106.8
C=CCN(CCc1c[nH]c2ccc(F)cc12)C(C)CC (stereo not drawn)
103.4
CCCN(CC)CCc1c[nH]c2c(F)c(F)c(F)cc12
103.0
CCCN(CC#N)CCc1c[nH]c2c(F)cccc12
68.7
C=CCN(CC)CCc1c[nH]c2ccc(F)cc12
104.8
CC(CN)c1c[nH]c2ccc(F)cc12 (stereo not drawn)
90.7
C=CC(C)N(C)CCc1c[nH]c2ccc(F)cc12 (stereo not drawn)
84.7
CN1CCC(c2c[nH]c3cc(F)c(F)cc23)C1 (stereo not drawn)
53.3
CCCN(CC)CCc1c[nH]c2c(F)c(F)ccc12
90.4
CCCN(CC)CCc1c[nH]c2c(F)cc(C)cc12
98.1
CN(CCc1c[nH]c2ccc(F)cc12)C1CSC1
61.8
CC(C)N(C)CCc1c[nH]c2ccc(F)cc12
95.1
CCC(C)N(CCc1c[nH]c2ccc(F)cc12)C1CC1 (stereo not drawn)
94.0
CCCN(CC)CCc1c[nH]c2ccc(F)cc12
103.5
CCCN(CCc1c[nH]c2ccc(F)cc12)C(C)C
99.5
CCCN(C)CCc1c[nH]c2ccc(F)cc12
103.0
C=CCN(C)CCc1c[nH]c2ccc(F)cc12
100.3
CN1CCC[C@H]1Cc1c[nH]c2ccc(F)cc12
34.4
CCN(C)CCc1c[nH]c2cc(F)c(Cl)cc12
79.3
